B1: KRT34 (parent)
chain: YQSYFKTIEELQQKILCAKAENAR

Variants of: B1
assay remarks: protein stability index of a GFP-peptide fusion (GPS, HEK-293T) (PSI 1-6); higher = more stable;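 further: lentivirally expressed fusions sorted by FACS into six bins by GFP to DsRed ratio, PSI derived from sequencing read proportions per bin multiplied by bin number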
details: c terminus: a fixed tail appended
1 means recorded protein stability index is 2 or above; 0 means it is below 2.

Example entries begin here.
YQSYFKTIEELQQKILCAKANNAR [E21N]
0
YQSYFKTINELQQKILCAKAENAR [E9N]
1
YQSYFKTIEELQQKILCAKAENAF [R24F]
0
YQSYFGTIEELQQKILCAKAENAR [K6G]
1
YQSYFKTIEELQQKILCAYAENAR [K19Y]
0

INPUT: Check this variant for protein stability index at or above 2: YQSYFKTIEELQHKILCAKAENAR [Q13H]
OUTPUT: 1

INPUT: Quick check, protein stability index >= 2? YQSYFKKIEELQQKILCAKAENAR [T7K]
OUTPUT: 0

INPUT: Determine whether measured protein stability index meets or exceeds 2 for YQSYFKTIEELQQKILYAKAENAR [C17Y]
OUTPUT: 1

INPUT: Exam item: decide whether the reported protein stability index for YQSYFKTIEELQQKILGAKAENAR [C17G] is at least 2.
OUTPUT: 1
